Values from PubChem BioAssay (NCI)

System: BT-549 breast
Test: NCI-60 one-dose screen, 48 h
Conditions: 10 µM unless noted
About 83,000 compounds went through this panel and 20% of them were active in at least one assay; those are over-represented in the sample as a whole. Calls of active or inactive are those of the source. How the source made its calls: active means growth percent below 10; inactive means the rest.
Classes to choose from: active, inactive

Q: Can you look up the reported call for CCN1C(=O)N(CC)C2C1N=C(SC)N2/N=C/C=C/c1ccccc1OC (stereo not given) for me?
Ans: inactive

Q: Can you look up the reported call for CCCCCN(CCCCC)C(=O)C(CCC(=O)O)NC(=O)c1ccc(Cl)c(Cl)c1 (stereo not given) for me?
Ans: inactive

Q: Can you look up the reported call for Clc1nnc2c3ccccc3ccn12 for me?
Ans: inactive

Q: Can you look up the reported call for CC[C@]1(O)C[C@H]2CN(CCc3c([nH]c4ccccc34)C(C(=O)OC)(c3cc4c(cc3OC)N(C)[C@H]3[C@@](O)(C(=O)OC)[C@H](OC(C)=O)[C@]5(CC)[C@@H]6C[C@@H]6CN6CC[C@]43[C@@H]65)C2)C1 (stereo not given in full) for me?
Ans: active

Q: Can you look up the reported call for CCCCCCCCN=C(NCCCCCCCC)SCc1cccc2ccccc12 for me?
Ans: active

Q: Can you look up the reported call for CCN(CC)CCNC(=O)n1cc(-c2ccncc2)c(-c2cc(Cl)cc(OC)c2)n1 for me?
Ans: inactive

Q: Can you look up the reported call for CC(=O)O[C@H]1CC[C@]2(C)[C@H]3CC=C4[C@@H]5CC(C)(C)CC[C@]5(C(=O)OCC(COC(=O)C(Cl)Cl)(COC(=O)C(Cl)Cl)NC(=O)C(Cl)Cl)CC[C@@]4(C)[C@]3(C)CC[C@H]2C1(C)C for me?
Ans: inactive

Q: Can you look up the reported call for COc1ccc(-c2cc(-c3cn(-c4cccc(Cl)c4)nc3-c3ccc(OC)cc3)[nH]c(=S)n2)cc1 for me?
Ans: inactive

Q: Can you look up the reported call for COc1ccc(NC(=O)c2sc3c(=O)[nH]c(C(F)(F)F)nc3c2C)cc1 for me?
Ans: inactive

Q: Can you look up the reported call for COc1ccc2nc(-c3ccc(-c4noc(-c5ccc(Cl)cc5)n4)cc3)[nH]c2c1 for me?
Ans: inactive

Q: Can you look up the reported call for COc1cnc2c(c1)C(=O)c1c-2n(CCCN2CCN(C)CC2)c(=O)c2cc(Cl)ccc12 for me?
Ans: inactive

Q: Can you look up the reported call for c1csc(-c2cnc3nonc3n2)c1 for me?
Ans: inactive

Q: Can you look up the reported call for CC(C)(C)[Si](C)(C)OC1[C@@H](O[Si](C)(C)C(C)(C)C)[C@@H](CNC(=O)NC(=O)NC(=O)CI)O[C@H]1n1cnc2c(NC(=O)Nc3ccccc3)ncnc21 (stereo not given in full) for me?
Ans: inactive

Q: Can you look up the reported call for CCCCn1cnc2c(SCc3ccc([N+](=O)[O-])cc3)nc(N)nc21 for me?
Ans: inactive

Q: Can you look up the reported call for CCOC(=O)c1cnc(SCC)nc1SC#N for me?
Ans: inactive
